Molecular target: T1, SARS-CoV-2 spike protein (nCoV-S Spike Protein Trimer, NIH) (SARS-CoV-2, UniProt P0DTC2 14-1208)
T1 construct: also called S protein
Test: HT-SPR (Carterra LSA), mAb on chip, SARS-CoV-2 spike protein titrated, 37 C
Listed next: entries and their corresponding Kd.

>  <Binder>
antibody 494 (antibody, V domains shown) VH: EVQLVESGGGLVQPGGSLRLSCAASGFTVSSNYMSWVRQAPGKGLEWVSVIYSGGSTFYADSVKGRFTISRDNSKNTLYLQMNSLRAEDTAVYYCARDSGDQLLDYWGQGTLVTVSS VL: DIQLTQSPSFLSASVGDRVTITCRASQGISSYLAWYQQKPGKAPKLLIYAASTLQSGVPSRFSGSGSGTEFTLTISSLQPEDFATYYCQQLNSYPPFTFGPGTKVDIKR

>  <Kd [pM]>
225

$$$$
>  <Binder>
antibody 292 (antibody, V domains shown) VH: EVQLVESGGGLIQPGGSLRLSCAASGFTVSSNYMSWVRQAPGKGLEWVSVIYSGGSTYYADSVKGRFTISRDNSKNTLYLQMNSLRAEDTAVYYCARDLQGGGGPWGQGTLVTVSS VL: AIQMTQSPSSLSASVGDRVTITCRASQGIRNDLGWYQQKPGKAPKLLIYAASSLQSGVPSRFSGSGSGTDFTLTISSLQPEDFATYYCLQDYNYPRTFGQGTKVEIKR

>  <Kd [pM]>
78.6

$$$$
>  <Binder>
antibody 414 (antibody, V domains shown) VH: QVQLVQSGAEVKKPGASVKVSCKASGYTFTSYYMHWVRQAPGQGLEWMGIINPSGGSTSYAQKFQGRVTMTRDTSTSTVYMELSSLRSEDTAVYYCARDPPGRDFWSGYYFGAPDYYYYYGMDVWGQGTTVTVSS VL: DIQMTQSPSSLSASVGDRVTITCRASQGISNYLAWFQQKPGKAPKSLIYAASSLQSGVPSKFSGSGSGTDFTLTISSLQPEDFATYYCQQYNSYPYTFGQGTKLEIKR

>  <Kd [pM]>
5210

$$$$
>  <Binder>
antibody 481 (antibody, V domains shown) VH: EVQLVESGGGLIQPGGSLRLSCAASGFTVSSNYMSWVRQAPGKGLEWVSVIYSGGSTFYADSVKGRFTISRDNSKNTLYLQMNSLRAEDTAVYYCAREVAGTYDYWGQGTLVTVSS VL: DIQMTQSPSSVSASVGDRVTITCRASQGISSWLAWYQQKPGKAPKLLIYAASSLQSGVPSRFSGSGSGTDFTLTISSLQPEDFATYYCQQANSFPGGTFGPGTKVDIKR

>  <Kd [pM]>
234

$$$$
